assay: qHTS assay to identify small molecule agonists of the androgen receptor (AR) signaling pathway in the presence of an antagonist - cell viability counter screen (AID 1259379); details: MDA-kb2 viability, CellTiter-Fluor, 16 h; series mostly up to 92.4 µM; also: nearly all actives have a fitted effect of over 25% in size
Results filed as inconclusive are left out. Calls of active or inactive are those of the source. Calls follow the shape of the dose curve; as a rule, active = well fitted cell-killing curve with a large enough effect in the repeat runs; inconclusive = weak or mixed curves, or effect the other way; inactive = flat fitted curve, though single readings scatter.
Classes used: label 1 for active, label 0 for inactive

>  <compound>
CCOC(=O)C(O)(c1ccc(Cl)cc1)c1ccc(Cl)cc1

>  <label-value>
label 0

$$$$
>  <compound>
OCC(c1ccc(Cl)cc1)c1ccc(Cl)cc1

>  <label-value>
label 0

$$$$
>  <compound>
ClC(Cl)=C(c1ccc(Cl)cc1)c1ccccc1Cl

>  <label-value>
label 0

$$$$
>  <compound>
COc1cc(OC)c(OC)cc1C=O

>  <label-value>
label 0

$$$$
>  <compound>
CO/C=C(/C(=O)OC)c1ccccc1Oc1cc(Oc2ccccc2C#N)ncn1

>  <label-value>
label 1

$$$$
>  <compound>
CC1COC(Cn2cncn2)(c2ccc(Oc3ccc(Cl)cc3)cc2Cl)O1 (centres undefined)

>  <label-value>
label 1

$$$$
>  <compound>
Oc1c(I)cc(I)cc1I

>  <label-value>
label 0

$$$$
>  <compound>
Nc1ccc([N+](=O)[O-])cc1

>  <label-value>
label 1

$$$$
>  <compound>
O=C(Nc1ccccc1-c1ccc(Cl)cc1)c1cccnc1Cl

>  <label-value>
label 0

$$$$

###

Experiment: qHTS assay for small molecule disruptors of the mitochondrial membrane potential - cell viability (AID 720634);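 also: human HepG2 liver cancer cells; nearly all actives have a fitted effect of over 20% in size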
Settings: HepG2 viability, ATP luminescence (CellTiter-Glo), 1 h; series mostly up to 83.2 µM
Procedure: U.S. Tox21 Program National Center for Advancing Translational Sciences [NCATS] NIH Chemical Genomics Center [NCGC] U.S. Environmental Protection Agency [EPA] National Institutes of Environmental Health Sciences [NIEHS] National Toxicology Program [NTP] […] Measuring MMP in living cells is commonly used to assess the effect of chemicals on mitochondrial function; decreases in MMP can be detected using lipophilic cationic fluorescent dyes. […] The cytotoxicity was measured in the same assay well of MMP assay. […]
Records with an inconclusive call do not appear. Calls of active or inactive are those of the source. Calls follow the shape of the full dose curve.
measure-name: outcome

>  <smiles-record>
CCN1C[C@]2(COC)[C@H](O)C[C@H](OC)[C@@]34[C@@H]5C[C@@]6(O)[C@H](OC(=O)c7ccccc7)[C@@H]5[C@@](OC(C)=O)([C@@H]([C@H](OC)[C@H]23)[C@@H]14)[C@@H](O)[C@@H]6OC

>  <meas-value>
inactive

$$$$
>  <smiles-record>
C=CC[C@]1(O)CC[C@H]2[C@@H]3CCC4=CCCC[C@@H]4[C@H]3CC[C@@]21C

>  <meas-value>
inactive

$$$$
>  <smiles-record>
C/C(=C\c1csc(C)n1)[C@@H]1C[C@@H]2O[C@]2(C)CCC[C@H](C)[C@H](O)[C@@H](C)C(=O)C(C)(C)[C@@H](O)CC(=O)O1

>  <meas-value>
inactive

$$$$

###

molecular target: Acetylcholinesterase (Homo sapiens) (UniProt P22303); assay: Acetylcholinesterase (AChE) small molecule antagonists: enzyme-based qHTS assay with human liver microsomes (AID 1347399); details: qHTS inhibition; series mostly up to 115 µM; also: nearly all actives have a fitted effect of over 60% in size
Sequence (P22303 whole entry, looked up): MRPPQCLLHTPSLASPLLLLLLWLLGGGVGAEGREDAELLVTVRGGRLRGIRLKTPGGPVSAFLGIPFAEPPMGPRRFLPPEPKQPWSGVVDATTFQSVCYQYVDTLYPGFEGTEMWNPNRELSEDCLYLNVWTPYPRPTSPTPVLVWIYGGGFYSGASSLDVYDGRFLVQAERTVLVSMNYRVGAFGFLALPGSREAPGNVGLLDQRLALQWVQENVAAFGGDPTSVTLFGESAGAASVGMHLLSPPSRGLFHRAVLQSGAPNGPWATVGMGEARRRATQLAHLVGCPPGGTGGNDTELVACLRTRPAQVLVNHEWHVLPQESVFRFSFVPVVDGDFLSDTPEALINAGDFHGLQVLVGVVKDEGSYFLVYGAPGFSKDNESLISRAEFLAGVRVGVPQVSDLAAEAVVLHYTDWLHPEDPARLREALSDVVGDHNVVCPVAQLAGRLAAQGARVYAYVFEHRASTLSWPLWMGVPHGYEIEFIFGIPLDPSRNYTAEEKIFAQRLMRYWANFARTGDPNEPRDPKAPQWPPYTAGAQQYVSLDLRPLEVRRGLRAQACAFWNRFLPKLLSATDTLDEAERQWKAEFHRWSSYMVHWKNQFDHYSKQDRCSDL
Activity calls are given as the source filed them. Calls follow the shape of the full dose curve.
Classes used: TRUE for active, FALSE for inactive

>  <compound>
CCCCC(CC)COC(=O)COc1ccc(Cl)cc1Cl (stereo not given)

>  <label-value>
FALSE

$$$$
>  <compound>
CCOC(=O)OC(C)OC1=C(C(=O)Nc2ccccn2)N(C)S(=O)(=O)c2ccccc21 (stereo not given)

>  <label-value>
FALSE

$$$$
>  <compound>
O=C(O)/C=C/C(=O)O

>  <label-value>
FALSE

$$$$
>  <compound>
CN(C)CCCCl

>  <label-value>
FALSE

$$$$
>  <compound>
CC1=CC(C)C(C=O)C(C)C1 (stereo not given)

>  <label-value>
FALSE

$$$$
>  <compound>
CO[Si](OC)(OC)OC

>  <label-value>
FALSE

$$$$
>  <compound>
Cc1cc2nc3ccc(=[N+](C)C)cc-3sc2cc1N

>  <label-value>
TRUE

$$$$
>  <compound>
O=c1oc(=O)c2cc3c(=O)oc(=O)c3cc12

>  <label-value>
FALSE

$$$$
>  <compound>
O=C(O)Cc1ccccc1Oc1ccc(Cl)cc1Cl

>  <label-value>
FALSE

$$$$
>  <compound>
CCC(C(=O)OCCN1CCOC(c2ccccc2)C1C)c1ccccc1 (stereo not given)

>  <label-value>
FALSE

$$$$
>  <compound>
CCCCOCCOC(=O)COc1cc(Cl)c(Cl)cc1Cl

>  <label-value>
FALSE

$$$$
>  <compound>
Cc1cn([C@@H]2O[C@H](CO)[C@@H](O)[C@@H]2F)c(=O)[nH]c1=O

>  <label-value>
FALSE

$$$$
>  <compound>
Clc1nc2ccccc2s1

>  <label-value>
FALSE

$$$$
>  <compound>
CCc1cccc(C)c1N(C(=O)CS(=O)(=O)O)C(C)COC (stereo not given)

>  <label-value>
FALSE

$$$$
>  <compound>
O=C(O)CCCl

>  <label-value>
FALSE

$$$$
>  <compound>
CCCCCCCCCCCCc1ccccc1O

>  <label-value>
FALSE

$$$$
>  <compound>
Nc1cc(Cl)cc(S(=O)(=O)O)c1O

>  <label-value>
FALSE

$$$$
>  <compound>
O=C(O)CCCc1c[nH]c2ccccc12

>  <label-value>
FALSE

$$$$
>  <compound>
C=CC(C)(O)CCC=C(C)C (stereo not given)

>  <label-value>
FALSE

$$$$
>  <compound>
c1ccc2cc3ccccc3cc2c1

>  <label-value>
FALSE

$$$$
>  <compound>
CCCCCCCCOC(=O)c1ccc(O)cc1

>  <label-value>
FALSE

$$$$
>  <compound>
CCCCCC/C(C=O)=C\c1ccccc1

>  <label-value>
FALSE

$$$$
>  <compound>
COCCOCCOCCO

>  <label-value>
FALSE

$$$$
>  <compound>
C[Si](C)(C)O[Si](O)(O)O

>  <label-value>
FALSE

$$$$
>  <compound>
Cc1ccc(Cl)c(N)c1Cl

>  <label-value>
FALSE

$$$$
>  <compound>
O=Cc1c2ccccc2c(Cl)c2ccccc12

>  <label-value>
FALSE

$$$$
>  <compound>
CCCCNc1ccccc1

>  <label-value>
FALSE

$$$$
>  <compound>
S=C(S)NCCNC(=S)S

>  <label-value>
FALSE

$$$$
>  <compound>
CC(C(=O)O)c1ccc(-c2ccccc2)c(F)c1 (stereo not given)

>  <label-value>
FALSE

$$$$
>  <compound>
C=CC(=O)OCCCCCCCC

>  <label-value>
FALSE

$$$$

###

target: Estrogen receptor (Homo sapiens) (UniProt P03372); assay: qHTS assay to identify small molecule agonists of the estrogen receptor alpha (ER-alpha) signaling pathway using the BG1 cell line (AID 743079); conditions: BG1Luc4E2 cells, ERE-luciferase agonist, 22 h; series mostly up to 70.3 µM; also: nearly all actives have a fitted effect of over 20% in size; also: potency is read from the fitted curve at half-maximal effect
Sequence (P03372 whole entry, looked up): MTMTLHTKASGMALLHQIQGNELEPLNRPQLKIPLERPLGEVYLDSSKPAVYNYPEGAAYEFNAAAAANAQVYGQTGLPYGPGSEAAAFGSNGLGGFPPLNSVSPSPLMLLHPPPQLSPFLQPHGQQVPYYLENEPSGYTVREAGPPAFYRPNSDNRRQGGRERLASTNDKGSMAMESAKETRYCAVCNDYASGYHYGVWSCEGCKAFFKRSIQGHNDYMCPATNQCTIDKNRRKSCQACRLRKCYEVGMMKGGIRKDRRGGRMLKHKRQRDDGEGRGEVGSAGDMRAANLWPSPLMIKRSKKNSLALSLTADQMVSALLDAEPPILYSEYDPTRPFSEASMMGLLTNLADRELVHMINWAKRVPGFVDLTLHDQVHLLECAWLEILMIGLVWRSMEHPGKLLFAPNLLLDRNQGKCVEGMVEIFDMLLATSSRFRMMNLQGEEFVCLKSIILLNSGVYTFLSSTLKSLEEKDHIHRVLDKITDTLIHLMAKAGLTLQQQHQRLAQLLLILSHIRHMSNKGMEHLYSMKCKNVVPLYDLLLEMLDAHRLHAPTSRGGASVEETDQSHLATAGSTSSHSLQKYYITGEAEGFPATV
Inconclusive results are not listed. Calls of active or inactive are those of the source. Calls follow the shape of the dose curve; as a rule, active = well fitted activation curve with a large enough effect in the repeat runs; inconclusive = weak or mixed curves, or effect the other way; inactive = no such curve, though single readings can be large or run the other way.

>  <molecule>
CC(=O)OCC(=O)[C@H]1CC[C@H]2[C@@H]3CC[C@H]4C[C@H](O)CC[C@]4(C)[C@H]3C(=O)C[C@]12C

>  <Potency>
inactive

$$$$
>  <molecule>
OC(c1ccccc1)(c1ccccc1)C1CN2CCC1CC2 (configuration not stated)

>  <Potency>
inactive

$$$$
>  <molecule>
CCC1(C)CC(=O)NC(=O)C1

>  <Potency>
inactive

$$$$
>  <molecule>
N#CC(C#N)=Cc1cc(O)c(O)c(O)c1

>  <Potency>
inactive

$$$$
>  <molecule>
C/C=C(\CC)C(=O)NC(N)=O

>  <Potency>
29.8 µM (active)

$$$$
>  <molecule>
C=CCC1([C@@H](C)CCC)C(=O)NC(=O)NC1=O

>  <Potency>
inactive

$$$$
>  <molecule>
O=C1CCCCC1CN1CCCCC1 (configuration not stated)

>  <Potency>
inactive

$$$$
>  <molecule>
CN1c2ccccc2C(NCCCCCCC(=O)O)c2ccc(Cl)cc2S1(=O)=O (configuration not stated)

>  <Potency>
inactive

$$$$
>  <molecule>
C1CN(P2(N3CC3)=NP(N3CC3)(N3CC3)=NP(N3CC3)(N3CC3)=N2)CCO1 (configuration not stated)

>  <Potency>
inactive

$$$$
>  <molecule>
CCCC(C)(COC(N)=O)COC(=O)NC1CC1 (configuration not stated)

>  <Potency>
inactive

$$$$
>  <molecule>
C[N+]1(C)[C@@H]2CC[C@H]1CC(OC(=O)c1c[nH]c3ccccc13)C2 (some centres not stated)

>  <Potency>
inactive

$$$$
>  <molecule>
CCCCCN(C)CCC(O)(P(=O)(O)O)P(=O)(O)O

>  <Potency>
inactive

$$$$
>  <molecule>
C[C@@H]1[C@H](O)[C@@H](C)/C=C/C=C/CC/C=C/C=C/C=C/C=C/[C@H](O[C@H]2O[C@@H](C)[C@H](O)[C@@H](N)[C@H]2O)CC2O[C@](O)(C[C@@H](O)[C@H](O)CC[C@@H](O)C[C@@H](O)C[C@@H](O)CC(=O)O[C@H]1C)C[C@H](O)[C@H]2C(=O)O

>  <Potency>
inactive

$$$$
>  <molecule>
NCC(O)c1cccc(O)c1 (configuration not stated)

>  <Potency>
inactive

$$$$
>  <molecule>
Clc1ccc2c(c1)C(c1ccccc1)=NCc1nncn1-2

>  <Potency>
inactive

$$$$
>  <molecule>
CCC1C(C)=NN=C(c2ccc(OC)c(OC)c2)c2cc(OC)c(OC)cc21 (configuration not stated)

>  <Potency>
inactive

$$$$
>  <molecule>
O=C1CCO1

>  <Potency>
inactive

$$$$
>  <molecule>
[S]=[Sb](=[S])[S][Sb](=[S])=[S]

>  <Potency>
inactive

$$$$
>  <molecule>
CCOc1ccc2c3c1O[C@H]1[C@@H](O)C=C[C@H]4[C@@H](C2)N(C)CC[C@@]341

>  <Potency>
inactive

$$$$
>  <molecule>
Cc1cc(C)cc(C(=O)OC2C[C@H]3CC[C@@H](C2)N3C)c1 (some centres not stated)

>  <Potency>
inactive

$$$$
>  <molecule>
CCCC(=O)OC(C(Cl)(Cl)Cl)P(=O)(OC)OC (configuration not stated)

>  <Potency>
26.6 µM (active)

$$$$
>  <molecule>
C[C@]12CCC(=O)C[C@@H]1CC[C@@H]1[C@@H]2CC[C@@]2(C)[C@H]1CC[C@]2(C)O

>  <Potency>
0.15 µM (active)

$$$$
